assay: activity coefficient (dimensionless); of the first substance listed, at infinite dilution; xn = mol fraction of the nth substance listed; details: 318.15 K; 101 kPa; Liquid; Chromatography; x1 = 0
recorded.endpoint: activity coefficient
Answers are plain numbers.

Worked cases, answers included:
>>> print(df.to_string())
                                   compound     recorded_endpoint  value_reported
0  CCO [ethanol] + O=S(=O)([N-]S(=O)(=O)C(F)(F)F)C(F)(F)F.OCCC[n+]1ccccc1  activity coefficient            1.16
1  CO [methanol] + O=S(=O)([N-]S(=O)(=O)C(F)(F)F)C(F)(F)F.OCCC[n+]1ccccc1  activity coefficient            0.87
2  CCCCCCC [heptane] + O=S(=O)([N-]S(=O)(=O)C(F)(F)F)C(F)(F)F.OCCC[n+]1ccccc1  activity coefficient            73.8

I would be grateful if you could provide activity coefficient for each of the following entries.
1. C1CCCCCCC1 [cyclooctane] + O=S(=O)([N-]S(=O)(=O)C(F)(F)F)C(F)(F)F.OCCC[n+]1ccccc1
2. C=CCCCCCC [oct-1-ene] + O=S(=O)([N-]S(=O)(=O)C(F)(F)F)C(F)(F)F.OCCC[n+]1ccccc1

Result string:
[46.4, 53]

Quick request: activity coefficient for each listed item, please.
1. CCCCCC [hexane] + O=S(=O)([N-]S(=O)(=O)C(F)(F)F)C(F)(F)F.OCCC[n+]1ccccc1
2. C#CCCCC [1-hexyne] + O=S(=O)([N-]S(=O)(=O)C(F)(F)F)C(F)(F)F.OCCC[n+]1ccccc1

Result string:
1. 46.7
2. 6.25

For every record below, what is its activity coefficient?
1. c1ccsc1 [thiophene] + O=S(=O)([N-]S(=O)(=O)C(F)(F)F)C(F)(F)F.OCCC[n+]1ccccc1
2. CCC(C)CC [3-methylpentane] + O=S(=O)([N-]S(=O)(=O)C(F)(F)F)C(F)(F)F.OCCC[n+]1ccccc1
3. CC1CCCCC1 [methylcyclohexane] + O=S(=O)([N-]S(=O)(=O)C(F)(F)F)C(F)(F)F.OCCC[n+]1ccccc1
4. C1CCCCCC1 [cycloheptane] + O=S(=O)([N-]S(=O)(=O)C(F)(F)F)C(F)(F)F.OCCC[n+]1ccccc1

Result string:
1: 1.27; 2: 40; 3: 35.2; 4: 32.8
